Below, each entry is listed with its recorded IC50.
Test system: 439559-082-T-J2-PDC spheroids viability
Experiment summary: Anticancer human tumor 439559-082-T-J2-PDC patient-derived colon adenocarcinoma cell line growth inhibition [GQUAD]
Stated conditions: curve of first compound; second compound 0.316 µM
Numeric only. Scale: nM

Check out these entries, answers already filled in.
| Compound | IC50 (nM) |
| --- | --- |
| O=C(NO)c1cnc(N2CCN(S(=O)(=O)c3ccc4ccccc4c3)CC2)nc1 + CN(C)c1ccc(Nc2c3ccc(NC(=O)CCN4CCCC4)cc3nc3cc(NC(=O)CCN4CCCC4)ccc23)cc1 | 334 |
| Nc1ccn(C2OC(CO)C(O)C2(F)F)c(=O)n1 (stereo not given) + CN(C)c1ccc(Nc2c3ccc(NC(=O)CCN4CCCC4)cc3nc3cc(NC(=O)CCN4CCCC4)ccc23)cc1 | 232 |
| COc1cccc2c1C(=O)c1c(O)c3c(c(O)c1C2=O)CC(O)(C(=O)CO)CC3OC1CC(N)C(O)C(C)O1 (stereo not given) + Cc1cnc(CNC(=O)c2c(=O)c3ccc(N4CCCN(C)CC4)nc3n3c2sc2ccccc23)cn1 | 7150 |

Could you now look at the following compound, please?
Exercise: Form field: IC50 recorded for CC(=O)O[C@H]1C(=O)[C@@]2(C)[C@H]([C@H](OC(=O)c3ccccc3)[C@]3(O)C[C@H](OC(=O)[C@H](O)[C@@H](NC(=O)c4ccccc4)c4ccccc4)C(C)=C1C3(C)C)[C@]1(OC(C)=O)CO[C@@H]1C[C@@H]2O + CN(C)c1ccc(Nc2c3ccc(NC(=O)CCN4CCCC4)cc3nc3cc(NC(=O)CCN4CCCC4)ccc23)cc1 with 439559-082-T-J2-PDC spheroids viability (enter value)
Key: 2040

---

Below, each entry is listed with its recorded IC50.
Test system: 439559-082-T-J2-PDC spheroids viability
Experiment summary: Anticancer human tumor 439559-082-T-J2-PDC cell line growth inhibition [GQUAD];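 also: spheroids exposed to the agents for 7 days before readout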
Stated conditions: curve of first compound; second compound 0.0316 µM

Check out these entries, answers already filled in.
| Molecule | IC50 |
| --- | --- |
| CC(=O)O[C@H]1C(=O)[C@@]2(C)[C@H]([C@H](OC(=O)c3ccccc3)[C@]3(O)C[C@H](OC(=O)[C@H](O)[C@@H](NC(=O)c4ccccc4)c4ccccc4)C(C)=C1C3(C)C)[C@]1(OC(C)=O)CO[C@@H]1C[C@@H]2O + Cc1cnc(CNC(=O)c2c(=O)c3ccc(N4CCCN(C)CC4)nc3n3c2sc2ccccc23)cn1 | 2820 nM |
| Cc1cccc(N(C)C(=O)C2C(O)CCN2c2nc(C)cc(C(F)(F)F)c2C#N)c1 (configuration not stated) + Cc1cnc(CNC(=O)c2c(=O)c3ccc(N4CCCN(C)CC4)nc3n3c2sc2ccccc23)cn1 | > 10000 nM |
| CCCS(=O)(=O)Nc1ccc(F)c(C(=O)c2c[nH]c3ncc(-c4ccc(Cl)cc4)cc23)c1F + Cc1cnc(CNC(=O)c2c(=O)c3ccc(N4CCCN(C)CC4)nc3n3c2sc2ccccc23)cn1 | > 10000 nM |

Exercise: Which IC50 value is on record for CC(C)n1c(=O)n(C)c2cnc3cc(F)c(-c4ccc(OCCCN5CCCCC5)nc4)cc3c21 + Cc1[nH]c2ccc(F)cc2c1-c1nc2c3cccnc3c3ncccc3c2[nH]1 ?
Key: > 10000 nM

Exercise: Which IC50 value is on record for COc1ccc([C@@H](O)c2cc(-c3ncnc4cc(N5CCOCC5)ccc34)c(F)cc2Cl)nn1 + CN(C)c1ccc(Nc2c3ccc(NC(=O)CCN4CCCC4)cc3nc3cc(NC(=O)CCN4CCCC4)ccc23)cc1 ?
Key: > 10000 nM

Exercise: Which IC50 value is on record for Cc1[nH]c2ccccc2c1CCNCc1ccc(/C=C/C(=O)NO)cc1 + CN(C)c1ccc(Nc2c3ccc(NC(=O)CCN4CCCC4)cc3nc3cc(NC(=O)CCN4CCCC4)ccc23)cc1 ?
Key: > 316 nM

Exercise: Which IC50 value is on record for C#Cc1c(F)ccc2cc(O)cc(-c3ncc4c(N5CC6CCC(C5)N6)nc(OCC56CCCN5CC(F)C6)nc4c3F)c12 (configuration not stated) + Cc1[nH]c2ccc(F)cc2c1-c1nc2c3cccnc3c3ncccc3c2[nH]1 ?
Key: 1540 nM

These entries and their values trace back to PubChem BioAssay AID2060510.
